B1: FAM98B (parent)
chain: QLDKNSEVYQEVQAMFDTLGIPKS

Variants of: B1
Assay: protein stability index of a GFP-peptide fusion (GPS, HEK-293T) (PSI 1-6); higher = more stable;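 further: lentivirally expressed fusions sorted by FACS into six bins by GFP to DsRed ratio, PSI derived from sequencing read proportions per bin multiplied by bin number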
Details: c terminus: a fixed tail appended
measured endpoint: protein stability index
Please give only the number in your answer, with no unit.

Field: example entries. Status: answers known.
>  <sequence text>
QLDKNSEVYQEVQAMFSTLGIPKS

>  <measured endpoint>
protein stability index

>  <measured result>
3.14

$$$$
>  <sequence text>
QLDKNSEVYQEVQAMFDTLGVPKS

>  <measured endpoint>
protein stability index

>  <measured result>
3.51

$$$$
>  <sequence text>
QLDKNSEVYQEVQAMFDPLGIPKS

>  <measured endpoint>
protein stability index

>  <measured result>
3.38

$$$$
>  <sequence text>
QLDKNSEVYQCVQAMFDTLGIPKS

>  <measured endpoint>
protein stability index

>  <measured result>
2.48

$$$$
>  <sequence text>
QLDKNSEVYQEVQAMFDLLGIPKS

>  <measured endpoint>
protein stability index

>  <measured result>
2.97

$$$$
>  <sequence text>
QLDKNSEVYPEVQAMFDTLGIPKS

>  <measured endpoint>
protein stability index

>  <measured result>
2.73

$$$$

protein stability index for QLDKNSEVYYEVQAMFDTLGIPKS is 2.49

The recorded protein stability index for QLDKNEEVYQEVQAMFDTLGIPKS is 4.21

protein stability index reported for this variant QLDKNSEVYQEVQAMFDTLGIKKS : 3.38

Measured protein stability index, QLDKNSEVYQEVQAMFDTLGYPKS : 3

protein stability index measured on QLDKNSEVYQGVQAMFDTLGIPKS = 2.78
